- Test system: Streptococcus viridans
- Protocol Details: Antibacterial activity against penicillin-nonsusceptible Streptococcus viridans assessed as susceptible isolates by CLSI M7-A7 broth microdilution method
- Assay type: functional
Endpoint Label: Activity (%)
Give the value in % but do not write % after it.

* CN[C@H](CC(C)C)C(=O)N[C@H]1C(=O)N[C@@H](CC(N)=O)C(=O)N[C@H]2C(=O)N[C@H]3C(=O)N[C@H](C(=O)N[C@H](C(=O)O)c4cc(O)cc(O)c4-c4cc3ccc4O)[C@H](O)c3ccc(c(Cl)c3)Oc3cc2cc(c3O[C@@H]2O[C@H](CO)[C@@H](O)[C@H](O)[C@H]2O[C@H]2C[C@](C)(N)[C@H](O)[C@H](C)O2)Oc2ccc(cc2Cl)[C@H]1O | 92.9
* CC1(C)S[C@@H]2[C@H](NC(=O)Cc3ccccc3)C(=O)N2[C@H]1C(=O)O | 0
* CCCCCCCCCC(=O)N[C@@H](Cc1c[nH]c2ccccc12)C(=O)N[C@H](CC(N)=O)C(=O)N[C@@H](CC(=O)O)C(=O)N[C@@H]1C(=O)NCC(=O)N[C@@H](CCCN)C(=O)N[C@@H](CC(=O)O)C(=O)N[C@H](C)C(=O)N[C@@H](CC(=O)O)C(=O)NCC(=O)N[C@H](CO)C(=O)N[C@@H]([C@H](C)CC(=O)O)C(=O)N[C@@H](CC(=O)c2ccccc2N)C(=O)O[C@@H]1C | 100

Please look at the following compound next.
// "CC[C@H]1OC(=O)[C@H](C)[C@@H](O[C@H]2C[C@@](C)(OC)[C@@H](O)[C@H](C)O2)[C@H](C)[C@@H](O[C@@H]2O[C@H](C)C[C@H](N(C)C)[C@H]2O)[C@](C)(O)C[C@@H](C)C(=O)[C@H](C)[C@@H](O)[C@]1(C)O" : Activity value = 21.4

###

Property: MIC50; scope: individual molecules
- Tested on: Serratia marcescens
- Protocol Details: Antibacterial activity against ceftazidime-susceptible Serratia marcescens by CLSI M7-A7 broth microdilution method
- Type: functional
Give the value in mg/L but do not write mg/L after it.

• CO/N=C(\C(=O)N[C@@H]1C(=O)N2C(C(=O)O)=C(CSc3nc(=O)c(O)nn3C)CS[C@H]12)c1csc(N)n1 = 0.25
• C[C@H]1COc2c(N3CCN(C)CC3)c(F)cc3c(=O)c(C(=O)O)cn1c23.C[C@H]1COc2c(N3CCN(C)CC3)c(F)cc3c(=O)c(C(=O)O)cn1c23.O = 0.12
• CC(C)(O/N=C(\C(=O)N[C@@H]1C(=O)N2C(C(=O)[O-])=C(C[n+]3ccccc3)CS[C@H]12)c1csc(N)n1)C(=O)O = 0.12
• CCO/N=C(\C(=O)N[C@@H]1C(=O)N2C(C(=O)[O-])=C(Sc3nc(-c4cc[n+](C)cc4)cs3)CS[C@H]12)c1nsc(NP(=O)(O)O)n1 = 0.5

// C[C@@H](O)[C@H]1C(=O)N2C(C(=O)O)=C(SCCNC=N)C[C@H]12 [IMIPENEM ANHYDROUS] : MIC50 value = 0.5

// "CCN1CCN(C(=O)N[C@@H](C(=O)N[C@@H]2C(=O)N3[C@@H]2SC(C)(C)[C@@H]3C(=O)O)c2ccccc2)C(=O)C1=O" : MIC50 value = 2
